# PBM binding z-score listing for each entry below
- Tested on: PXR:RXRa (NR concentration 270 nM, RXRa partner concentration 90 nM)
- Assay Name: PBM binding z-score (relative to random genomic background probes); higher = stronger binding; sequences stand for … in GC…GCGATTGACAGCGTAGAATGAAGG
Assay Metric: PBM binding z-score

[[record]]
seq_text = "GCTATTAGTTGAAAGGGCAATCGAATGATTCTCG"
value_reported = 0.658

[[record]]
seq_text = "TCAATGAGGTTAAAGATCAGGGAACGTGGCGTCG"
value_reported = 1.83

[[record]]
seq_text = "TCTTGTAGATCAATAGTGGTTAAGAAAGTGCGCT"
value_reported = 0.46

[[record]]
seq_text = "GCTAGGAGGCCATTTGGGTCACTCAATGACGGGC"
value_reported = 1.21

[[record]]
seq_text = "CAGCGTAGGTCAGGGCCAGTATAGGAGGAACGTT"
value_reported = 0.605

[[record]]
seq_text = "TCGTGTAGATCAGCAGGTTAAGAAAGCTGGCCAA"
value_reported = -0.0142

[[record]]
seq_text = "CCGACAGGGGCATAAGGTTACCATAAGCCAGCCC"
value_reported = 0.688

[[record]]
seq_text = "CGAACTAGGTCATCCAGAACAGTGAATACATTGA"
value_reported = 1.48

[[record]]
seq_text = "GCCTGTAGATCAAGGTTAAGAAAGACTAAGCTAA"
value_reported = 0.333

[[record]]
seq_text = "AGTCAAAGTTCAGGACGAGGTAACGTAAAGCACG"
value_reported = 2.94

[[record]]
seq_text = "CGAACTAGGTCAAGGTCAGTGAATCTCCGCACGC"
value_reported = 3.45

[[record]]
seq_text = "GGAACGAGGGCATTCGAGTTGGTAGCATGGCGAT"
value_reported = 2.69

[[record]]
seq_text = "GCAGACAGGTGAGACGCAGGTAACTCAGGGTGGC"
value_reported = -0.282

[[record]]
seq_text = "CAGCCTAGGTCAGGGCCAATATAGGAGGAACGTT"
value_reported = 0.404

[[record]]
seq_text = "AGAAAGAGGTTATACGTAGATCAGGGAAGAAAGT"
value_reported = 1.54

[[record]]
seq_text = "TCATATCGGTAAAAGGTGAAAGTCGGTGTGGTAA"
value_reported = 1.25

[[record]]
seq_text = "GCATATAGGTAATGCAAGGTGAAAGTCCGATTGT"
value_reported = 0.573

[[record]]
seq_text = "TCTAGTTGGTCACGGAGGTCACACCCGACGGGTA"
value_reported = 4.15

[[record]]
seq_text = "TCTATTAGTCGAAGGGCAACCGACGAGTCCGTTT"
value_reported = 0.597

[[record]]
seq_text = "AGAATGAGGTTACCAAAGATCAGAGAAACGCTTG"
value_reported = 1.28

[[record]]
seq_text = "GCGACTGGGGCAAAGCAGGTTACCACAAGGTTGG"
value_reported = 0.473

[[record]]
seq_text = "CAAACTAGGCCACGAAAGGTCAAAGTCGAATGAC"
value_reported = 5.73

[[record]]
seq_text = "ATATGTAGGTTAAGGGTAATTCAGGTTGGTTCGC"
value_reported = 1.74


###

- System: RARb homodimer (NR concentration 270 nM)
- Assay Name: PBM binding z-score (relative to random genomic background probes); higher = stronger binding; sequences stand for … in GC…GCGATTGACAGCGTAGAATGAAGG
Assay Metric: PBM binding z-score

[[record]]
seq_text = "TCATATAGGTAATACCGGTGAAAGTCGGCATCTA"
assay_metric = "PBM binding z-score"
value_reported = -0.00712

[[record]]
seq_text = "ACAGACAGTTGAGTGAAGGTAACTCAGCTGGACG"
assay_metric = "PBM binding z-score"
value_reported = -0.475

[[record]]
seq_text = "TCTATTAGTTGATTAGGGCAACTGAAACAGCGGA"
assay_metric = "PBM binding z-score"
value_reported = 0.795

[[record]]
seq_text = "GGAACGAGGGCAAAGATGATAGCATCTGTCGACG"
assay_metric = "PBM binding z-score"
value_reported = 0.55

[[record]]
seq_text = "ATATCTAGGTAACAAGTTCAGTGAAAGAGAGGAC"
assay_metric = "PBM binding z-score"
value_reported = 1.93

[[record]]
seq_text = "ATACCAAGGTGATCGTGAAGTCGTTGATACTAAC"
assay_metric = "PBM binding z-score"
value_reported = 0.398

[[record]]
seq_text = "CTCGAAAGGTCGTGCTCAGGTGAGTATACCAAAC"
assay_metric = "PBM binding z-score"
value_reported = 2.75

[[record]]
seq_text = "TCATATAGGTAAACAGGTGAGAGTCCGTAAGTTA"
assay_metric = "PBM binding z-score"
value_reported = 0.672

[[record]]
seq_text = "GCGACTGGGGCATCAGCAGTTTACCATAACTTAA"
assay_metric = "PBM binding z-score"
value_reported = 0.541

[[record]]
seq_text = "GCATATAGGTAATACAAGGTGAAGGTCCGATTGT"
assay_metric = "PBM binding z-score"
value_reported = 1.04

[[record]]
seq_text = "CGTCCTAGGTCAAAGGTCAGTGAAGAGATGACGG"
assay_metric = "PBM binding z-score"
value_reported = 4.99

[[record]]
seq_text = "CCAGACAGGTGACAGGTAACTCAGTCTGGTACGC"
assay_metric = "PBM binding z-score"
value_reported = 0.331

[[record]]
seq_text = "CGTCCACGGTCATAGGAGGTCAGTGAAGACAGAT"
assay_metric = "PBM binding z-score"
value_reported = 3.91

[[record]]
seq_text = "GATATAGGGTCAAGGCCAGAGTACGCGTATTGAT"
assay_metric = "PBM binding z-score"
value_reported = 3.71

[[record]]
seq_text = "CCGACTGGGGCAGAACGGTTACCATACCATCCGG"
assay_metric = "PBM binding z-score"
value_reported = 0.0428

[[record]]
seq_text = "CCTCGGAGCACAGAAGGTCAGAGCTGTCCGCTTT"
assay_metric = "PBM binding z-score"
value_reported = 3.08

[[record]]
seq_text = "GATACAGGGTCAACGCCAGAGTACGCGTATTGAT"
assay_metric = "PBM binding z-score"
value_reported = 3.62

[[record]]
seq_text = "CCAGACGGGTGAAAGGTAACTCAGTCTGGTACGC"
assay_metric = "PBM binding z-score"
value_reported = 0.112

[[record]]
seq_text = "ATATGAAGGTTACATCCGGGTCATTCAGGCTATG"
assay_metric = "PBM binding z-score"
value_reported = 3.52

[[record]]
seq_text = "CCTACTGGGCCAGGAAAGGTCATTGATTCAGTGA"
assay_metric = "PBM binding z-score"
value_reported = 4.32

[[record]]
seq_text = "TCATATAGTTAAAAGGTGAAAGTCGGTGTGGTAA"
assay_metric = "PBM binding z-score"
value_reported = 1.92

[[record]]
seq_text = "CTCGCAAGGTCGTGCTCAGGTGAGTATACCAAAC"
assay_metric = "PBM binding z-score"
value_reported = 1.7

[[record]]
seq_text = "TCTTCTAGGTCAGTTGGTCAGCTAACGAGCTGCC"
assay_metric = "PBM binding z-score"
value_reported = 3.05

[[record]]
seq_text = "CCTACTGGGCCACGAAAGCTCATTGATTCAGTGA"
assay_metric = "PBM binding z-score"
value_reported = -0.538

[[record]]
seq_text = "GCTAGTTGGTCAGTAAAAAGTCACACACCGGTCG"
assay_metric = "PBM binding z-score"
value_reported = 1.33

[[record]]
seq_text = "TTACCAAGTTGAAGGTCGTTGATCCCTCTGTAGA"
assay_metric = "PBM binding z-score"
value_reported = 1.15

